Reference source: paper PMC11193019

# experimental.system: ASCT2 (rASCT2) (Rattus norvegicus, UniProt D3ZJ25, D489N)
# Construct: rASCT2 mutant expressed in HEK293T cells
# Sequence (D3ZJ25 1-555 D489N): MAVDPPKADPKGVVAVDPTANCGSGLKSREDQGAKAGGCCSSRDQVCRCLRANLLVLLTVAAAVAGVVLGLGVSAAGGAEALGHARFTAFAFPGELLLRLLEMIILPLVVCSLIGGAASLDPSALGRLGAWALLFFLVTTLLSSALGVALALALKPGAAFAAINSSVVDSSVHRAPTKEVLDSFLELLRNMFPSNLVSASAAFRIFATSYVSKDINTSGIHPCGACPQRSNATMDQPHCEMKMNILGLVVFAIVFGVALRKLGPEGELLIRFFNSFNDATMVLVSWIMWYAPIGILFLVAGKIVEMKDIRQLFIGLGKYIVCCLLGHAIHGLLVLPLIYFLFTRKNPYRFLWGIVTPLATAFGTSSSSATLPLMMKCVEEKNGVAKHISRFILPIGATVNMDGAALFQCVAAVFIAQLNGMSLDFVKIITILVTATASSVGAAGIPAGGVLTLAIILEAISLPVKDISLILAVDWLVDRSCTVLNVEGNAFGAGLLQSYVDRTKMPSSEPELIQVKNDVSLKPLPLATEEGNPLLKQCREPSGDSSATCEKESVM
# protocol.details: whole-cell patch clamp, anion current dose response at […] Na+
measure: pIC50
Numbers only, as −log10 of the molar value.

Tell me the measured pIC50 of O=C(O[C@@H]1CN[C@H](C(=O)O)C1)c1ccc(-c2ccccc2)cc1 [Lc-BPE, L-cis hydroxyproline biphenyl ester] , please.
5.36
